So I've got a bunch of binders here, and I need their Min cell viability %, BT20/H_LIV-1 High values.
- measurement_target: T1, human LIV-1 (human, UniProt Q13433 29-755)
- T1 sequence (looked up): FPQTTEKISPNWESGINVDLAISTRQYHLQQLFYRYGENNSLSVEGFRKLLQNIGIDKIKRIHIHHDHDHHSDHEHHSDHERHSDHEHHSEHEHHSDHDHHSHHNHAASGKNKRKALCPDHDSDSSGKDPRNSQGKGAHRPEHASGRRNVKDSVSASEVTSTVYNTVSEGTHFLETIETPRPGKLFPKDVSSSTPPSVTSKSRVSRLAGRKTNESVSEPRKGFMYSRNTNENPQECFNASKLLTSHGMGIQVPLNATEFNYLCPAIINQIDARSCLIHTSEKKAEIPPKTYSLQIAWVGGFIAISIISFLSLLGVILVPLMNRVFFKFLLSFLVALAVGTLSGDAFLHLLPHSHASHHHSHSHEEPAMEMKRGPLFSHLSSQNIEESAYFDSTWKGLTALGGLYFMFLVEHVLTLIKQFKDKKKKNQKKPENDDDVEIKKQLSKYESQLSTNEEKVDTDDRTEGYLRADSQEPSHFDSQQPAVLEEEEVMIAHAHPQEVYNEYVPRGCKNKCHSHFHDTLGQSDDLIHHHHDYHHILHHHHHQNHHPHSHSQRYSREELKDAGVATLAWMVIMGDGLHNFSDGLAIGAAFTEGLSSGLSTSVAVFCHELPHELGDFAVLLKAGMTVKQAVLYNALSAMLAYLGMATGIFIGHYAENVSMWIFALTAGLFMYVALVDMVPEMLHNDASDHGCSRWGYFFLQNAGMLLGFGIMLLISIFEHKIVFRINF
- experimental_protocol: cell-based or functional assay

Asked: Consider the binder shown here: 290F10G10.z2-MMAE (antibody, V domains shown, MMAE drug moiety conjugated; site and chain not stated, also called LM-001-MMAE) VH: EVQLVQSGAEVKKPGASVKVSCKASGYTFTSYWIHWVRQAPGQGLEWMGTIYPGDADTRSTQKFKDRVTMTADTSTSTVYMELSSLRSEDTAVYYCARSLIHDDYDKYYFDYWGQGTTVTVSS VL: DIQMTQSPSSLSASVGDRVTITCKARQDINKYIAWYQQKPGKAPKLLIHYTSILQPGIPSRFSGSGSGRDYTFTISSLQPEDIATYYCLQYDYFFTFGGGTKVEIK What is its recorded Min cell viability %, BT20/H_LIV-1 High?
Given back: 14.7%

Asked: Consider the binder shown here: 124H4D11.p2.z4-Eribulin (antibody, V domains shown, Eribulin drug moiety conjugated; site and chain not stated, Antibody-drug conjugate of 124H4D11.p2.z4; human gamma 1/kappa) VH: QVQLVQSGAEVVKPGASVKVSCKASGFNIKDYYMHWVRQAPGQGLEWIGWIDPENDDTEYDPKFQGRVTMTADTSTSTVYMELSSLRSEDTAVYYCAARYYAFDYWGQGTMVTVSS VL: DVLMTQSPLSLPVTLGQPASISCRSSQSIVHSNANTYLEWYLQRPGQSPRLLIYKVSNRFSGVPDRFSGSGSGTDFTLKISRVEAEDVGVYYCFQGSQVPPTFGQGTKLEIK What is its recorded Min cell viability %, BT20/H_LIV-1 High?
Given back: 20.7%

Asked: Consider the binder shown here: 290F10G10.z2-Eribulin (antibody, V domains shown, Eribulin drug moiety conjugated; site and chain not stated) VH: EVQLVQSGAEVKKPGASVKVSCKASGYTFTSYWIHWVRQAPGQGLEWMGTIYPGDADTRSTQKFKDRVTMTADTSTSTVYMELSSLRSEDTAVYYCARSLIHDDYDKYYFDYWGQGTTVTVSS VL: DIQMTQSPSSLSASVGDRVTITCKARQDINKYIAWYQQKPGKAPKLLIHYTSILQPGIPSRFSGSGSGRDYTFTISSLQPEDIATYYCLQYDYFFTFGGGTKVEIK What is its recorded Min cell viability %, BT20/H_LIV-1 High?
Given back: 17.6%
